This collection of values is drawn from patent US6187781A.

Target: UniProt:P35353
Sequence (P35353 24-415): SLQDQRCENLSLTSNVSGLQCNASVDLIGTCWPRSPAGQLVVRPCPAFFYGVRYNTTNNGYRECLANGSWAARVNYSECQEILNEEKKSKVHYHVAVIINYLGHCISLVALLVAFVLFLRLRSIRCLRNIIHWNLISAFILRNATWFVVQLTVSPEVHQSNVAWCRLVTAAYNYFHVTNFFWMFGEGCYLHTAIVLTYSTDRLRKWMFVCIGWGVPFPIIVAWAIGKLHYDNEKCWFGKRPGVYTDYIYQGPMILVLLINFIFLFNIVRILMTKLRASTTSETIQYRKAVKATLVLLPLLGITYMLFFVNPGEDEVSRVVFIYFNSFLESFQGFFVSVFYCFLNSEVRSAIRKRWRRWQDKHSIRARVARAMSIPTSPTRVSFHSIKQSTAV
Each record here notes measured pIC50.
The value called pIC50 is obtained by taking minus log10 of the concentration in mol/L.

// below: answered molecules
C#CCN(c1nc(C)cc(N2CC=C(c3ccc(Cl)cc3)CC2)n1)c1ccc(C(C)C)cc1Br : 7.51
CCN(c1nc(C)cc(N2CC=C(c3ccc(Cl)c(Cl)c3)CC2)n1)c1ccc(C(C)C)cc1Br : 7.17
C#CCN(c1nc(C)cc(N2CC=C(c3cccc(F)c3)CC2)n1)c1ccc(C(C)C)cc1SC : 7.05

Please examine the following record next.
Provide the documented pIC50 with UniProt:P35353 as the system for "CCN(c1nc(C)cc(N2CC=C(c3ccc(OC)cc3)CC2)n1)c1ccc(C(C)C)cc1Br" 7.08
